// data source = PubChem BioAssay (NCI)

growth: recorded values
System: SK-MEL-28 melanoma
Protocol text: NCI-60 one-dose screen, 48 h (100 = growth as untreated, 0 = no growth, -100 = all killed)
Experimental parameters: 10 µM unless noted
This is part of a sample that, as a whole, favours compounds with a hit. Of some 83,000 tested, about 20% had one in any assay.
Metric name: growth (%)

>>> experimental_value("COc1ccc(-c2cc(/C=C3\\C(=O)Nc4ccc(Cl)cc43)[nH]n2)cc1")
61.7
>>> experimental_value("O=C(Cn1cc(CN2C(=O)c3ccccc3S2(=O)=O)nn1)Nc1ccc([N+](=O)[O-])cc1Cl")
97
>>> experimental_value("COc1cc2c(c(OC)c1OC)-c1ccc(N=NC(N)=S)c(=O)cc1[C@@H](NC(C)=O)CC2")
53.6
>>> experimental_value("CN1CCCCC1CCN1c2ccccc2Sc2ccc(Cl)cc21 (stereo not given)")
75
>>> experimental_value("COc1ccc(C(=O)c2sc3nc(-c4ccccc4OC)ccc3c2N)cc1OC")
88.8
>>> experimental_value("CCOC(=O)c1c2c(n3ccc(NC(=O)CCN4CCOCC4)cc13)C(=O)c1ncccc1C2=O")
77.8
>>> experimental_value("COc1ccc(/C=c2/c(=O)[nH]c3nc4sc(C)c(C)c4c(=O)n23)cc1")
102
>>> experimental_value("O=C1c2cc3c(cc2-c2c1c1cc(Cl)c(Cl)cc1c(=O)n2C[C@H](O)CO)OCO3")
0.507
>>> experimental_value("CC(=O)CC(C)(C)c1ccc(Cl)cc1")
115
>>> experimental_value("Cc1ccc(/C=C2\\Oc3cc(OCC(=O)c4ccc(Cl)cc4)ccc3C2=O)cc1")
48.4
